# maps each entry to its Tmax
assay: Tmax in mouse at 10 mg/kg, po; assay type: ADME, organism-based; parameters: dose 10 mg/kg, route oral; conditions: in vivo
Enter your answer as a number in min; do not include the unit.

INSERT INTO results (molecule_smiles, measure_name, number) VALUES
  ('Cc1cc(Cl)ccc1-c1cccc(C(=O)N[C@H]2CC[C@H](n3cc(F)c(N)nc3=O)C2)c1', 'Tmax', 18),
  ('Cc1cc(Cl)ccc1-c1cccc(S(=O)(=O)N[C@H]2CC[C@H](n3cc(F)c(N)nc3=O)C2)c1', 'Tmax', 18);

Which Tmax value is on record for Nc1nc(=O)n([C@H]2CC[C@H](NC(=O)c3cc(-c4cc5ccccc5s4)ccn3)C2)cc1F ?
36

Continue with COc1ccc(-c2cccc(S(=O)(=O)N[C@H]3CC[C@H](n4cc(F)c(N)nc4=O)C3)c2)cc1
48

###

molecular target: Deoxycytidine kinase (Homo sapiens, UniProt P27707); assay: Inhibition of deoxycytidine kinase in anti CD3 and anti CD28 -stimulated human T cells assessed as reduction in [3H]deoxycitidine incorporation
Sequence (P27707 whole entry): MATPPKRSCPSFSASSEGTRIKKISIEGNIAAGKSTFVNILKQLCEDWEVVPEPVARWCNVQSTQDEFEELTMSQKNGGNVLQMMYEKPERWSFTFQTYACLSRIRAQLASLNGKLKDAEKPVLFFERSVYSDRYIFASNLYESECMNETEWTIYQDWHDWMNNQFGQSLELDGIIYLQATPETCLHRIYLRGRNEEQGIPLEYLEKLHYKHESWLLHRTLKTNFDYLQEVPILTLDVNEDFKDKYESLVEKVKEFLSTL
measure name: EC50 (nM)
Enter your answer as a number in nM; do not include the unit.

Which EC50 value is on record for Nc1nc(=O)n([C@H]2CC[C@H](NC(=O)c3cc(-c4cc5ccccc5s4)ccn3)C2)cc1F ?
90

###

# maps each entry to its IC50
target: Deoxycytidine kinase (Homo sapiens, UniProt P27707); test: Inhibition of human deoxycytidine kinase by lysate filter binding assay
Enter your answer as a number in nM; do not include the unit.

In the examples that follow, each entry is paired with its recorded IC50.
INSERT INTO assay_data (molecule_smiles, number) VALUES
  ('N#Cc1ccc(-c2cccc(S(=O)(=O)N[C@H]3CC[C@H](n4cc(F)c(N)nc4=O)C3)c2)cc1', 49),
  ('Nc1nc(=O)n([C@H]2CC[C@H](NS(=O)(=O)c3ccccc3)C2)cc1F', 3600);

Then this compound:
Which IC50 value is on record for COc1ccc(-c2cccc(S(=O)(=O)N[C@H]3CC[C@H](n4cc(F)c(N)nc4=O)C3)c2)cc1 ?
64

Cited source for all entries: ChEMBL document CHEMBL1154362
